# EXPERIMENTAL SYSTEM: vanilloid receptor 1 (VR1/TRPV1 receptor) (Homo sapiens, UniProt Q8NER1)
# Construct: expressed in transfected cells; host or cells: CHO K1
# Sequence (Q8NER1 whole entry): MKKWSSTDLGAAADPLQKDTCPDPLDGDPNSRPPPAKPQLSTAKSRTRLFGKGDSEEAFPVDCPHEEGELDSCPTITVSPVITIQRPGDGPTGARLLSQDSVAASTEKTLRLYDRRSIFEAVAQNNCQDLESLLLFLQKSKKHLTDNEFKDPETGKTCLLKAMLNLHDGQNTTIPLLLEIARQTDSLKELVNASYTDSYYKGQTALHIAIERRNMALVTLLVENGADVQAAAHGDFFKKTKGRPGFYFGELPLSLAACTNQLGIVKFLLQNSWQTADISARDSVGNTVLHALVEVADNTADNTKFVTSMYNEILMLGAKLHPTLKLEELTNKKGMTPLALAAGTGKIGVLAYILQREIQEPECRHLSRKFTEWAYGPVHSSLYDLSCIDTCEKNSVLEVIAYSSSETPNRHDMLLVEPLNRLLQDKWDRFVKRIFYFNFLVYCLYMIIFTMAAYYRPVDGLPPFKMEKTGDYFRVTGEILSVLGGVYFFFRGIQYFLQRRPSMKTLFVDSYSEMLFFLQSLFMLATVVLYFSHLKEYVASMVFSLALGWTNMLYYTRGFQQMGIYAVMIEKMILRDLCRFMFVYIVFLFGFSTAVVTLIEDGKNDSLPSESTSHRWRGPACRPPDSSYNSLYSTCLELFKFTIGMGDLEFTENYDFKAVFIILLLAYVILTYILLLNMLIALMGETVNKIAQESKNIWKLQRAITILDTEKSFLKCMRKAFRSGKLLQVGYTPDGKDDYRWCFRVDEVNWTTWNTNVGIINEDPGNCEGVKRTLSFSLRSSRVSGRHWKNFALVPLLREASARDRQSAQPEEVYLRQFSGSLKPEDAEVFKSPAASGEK
# ASSAY INFO: Functional testing on the vanilloid receptor 1 (VR1/TRPV1): FLIPR Ca2+ influx assay, displacement of capsaicin
# Format: cell-based, human being
# CONDITIONS USED: capsaicin (Cap) as stimulus; Ki from IC50 by Cheng-Prusoff; read-out: (f) Ki (human being) [nM] Cap
PROPERTY LABEL: Ki (nM)

Previously resolved entries follow.
>>> observed_result("COCCNc1ccc(NC(=O)NCc2cc(C(F)(F)F)nn2-c2cccc(Cl)c2)cn1")
51
>>> observed_result("CC(C)(C)c1cc(CNC(=O)Nc2ccc(N3CC[C@@H](O)C3)nc2)n(-c2cccc(Cl)c2)n1")
61
>>> observed_result("CC(C(=O)NCc1cc(C(F)(F)F)nn1-c1ccc(F)c(Cl)c1)c1ccc(CCO)nc1 (stereo not shown)")
28
>>> observed_result("CC(C(=O)NCc1cc(C(F)(F)F)nn1-c1cccc(Cl)c1)c1ccc(CO)nc1 (stereo not shown)")
1
>>> observed_result("O=C(NCc1cc(C(F)(F)F)nn1-c1cccc(Cl)c1)Nc1ccc(N2CCC2)nc1")
46

I: O=C(NCc1cc(C(F)(F)F)nn1-c1cccc(Cl)c1)Nc1ccc(N2CC[C@H](O)C2)nc1
II: CC(C(=O)NCc1cc(C(F)(F)F)nn1-c1cccc(Cl)c1)c1ccc(C(=O)Nc2ccc(F)cc2)nc1 (stereo not shown)
### Prompt Hello, I am sorting some records. Could you say if I or II has the smaller Ki value? Output the label that corresponds to your choice.
### Response II
(II: 5 nM, I: 64 nM)

----------
# EXPERIMENTAL SYSTEM: vanilloid receptor 1 (VR1/TRPV1 receptor) (Homo sapiens)
# Construct: expressed in transfected cells; host or cells: CHO K1
# ASSAY INFO: Functional testing on the vanilloid receptor 1 (VR1/TRPV1): FLIPR Ca2+ influx assay, displacement of capsaicin
# Format: cell-based, human being
# CONDITIONS USED: capsaicin (Cap) as stimulus; Ki from IC50 by Cheng-Prusoff; read-out: (f) Ki (human being) [nM] Cap
PROPERTY LABEL: Ki (nM)

>>> observed_result("CC(C)(C)c1cc(CNC(=O)Nc2ccc(N3CC[C@H](O)C3)nc2)n(-c2cccc(Cl)c2)n1")
61
>>> observed_result("CC(C)(C)c1cc(CNC(=O)Nc2ccc(CO)cn2)n(-c2cccc(Cl)c2)n1")
109
>>> observed_result("CC(C(=O)NCc1cc(C(C)(C)C)nn1-c1cccc(Cl)c1)c1cnc(C(=O)Nc2ccc(C(F)(F)F)cc2)nc1 (centres unmarked)")
13
>>> observed_result("Cc1cc(-n2nc(C(F)(F)F)cc2CNC(=O)Nc2ccc(NCCO)nc2)ccc1Cl")
29
>>> observed_result("Cc1cccc(-n2nc(C(F)(F)F)cc2CNC(=O)Nc2ccc(NCCO)nc2)c1")
12
>>> observed_result("O=C(NCc1cc(C(F)(F)F)nn1-c1cccc(Cl)c1)Nc1ccc(N2CC[C@@H](O)C2)nc1")
64

a: Cc1cc(-n2nc(C(F)(F)F)cc2CNC(=O)Nc2ccc(NCCO)nc2)ccc1F
b: COc1ccc(-n2nc(C(F)(F)F)cc2CNC(=O)Nc2ccc(NCCO)nc2)cc1C
### Prompt Two entries are listed, a and b . Which one carries the higher Ki? Output the label that corresponds to your choice.
### Response b
(b: 112 nM, a: 77 nM)

----------
# EXPERIMENTAL SYSTEM: vanilloid receptor 1 (VR1/TRPV1 receptor) (Homo sapiens)
# Construct: expressed in transfected cells; host or cells: CHO K1
# ASSAY INFO: Functional testing on the vanilloid receptor 1 (VR1/TRPV1): FLIPR Ca2+ influx assay, displacement of capsaicin
# Type: cell-based, human being
# CONDITIONS USED: capsaicin (Cap) as stimulus; Ki from IC50 by Cheng-Prusoff; read-out: (f) Ki (human being) [nM] Cap
PROPERTY LABEL: Ki (nM)

Previously resolved entries follow.
>>> observed_result("CS(=O)(=O)CCc1ncc(NC(=O)NCc2cc(C(F)(F)F)nn2-c2cccc(Cl)c2)cc1F")
29
>>> observed_result("CN(CCO)c1ccc(NC(=O)NCc2cc(C(F)(F)F)nn2-c2cccc(Cl)c2)cn1")
44
>>> observed_result("CC(C)(C)c1cc(CNC(=O)Nc2ccccn2)n(-c2cccc(Cl)c2)n1")
47
>>> observed_result("CC(C(=O)NCc1cc(C(F)(F)F)nn1-c1cccc(Cl)c1)c1ccc(NC(=O)c2ccc(Cl)cc2)nc1 (centres unmarked)")
3
>>> observed_result("CC(C(=O)NCc1cc(C(C)(C)C)nn1-c1cccc(Cl)c1)c1ccc(C(=O)Nc2ccc(F)cc2)nc1 (centres unmarked)")
4

I: CC(C(=O)NCc1cc(C(C)(C)C)nn1-c1cccc(Cl)c1)c1cnc(C(=O)Nc2ccc(F)cc2)nc1 (centres unmarked)
II: O=C(Cc1cncnc1)NCc1cc(C(F)(F)F)nn1-c1cccc(Cl)c1
III: CC(C(=O)NCc1cc(C(F)(F)F)nn1-c1cccc(Cl)c1)c1cnc(CO)c(F)c1 (centres unmarked)
### Prompt Kindly order the items shown according to Ki, from the highest value down. Rank the items, then write their labels in that order.
### Response II, I, III

----------
# EXPERIMENTAL SYSTEM: vanilloid receptor 1 (VR1/TRPV1 receptor) (Homo sapiens, UniProt Q8NER1)
# Construct: expressed in transfected cells; host or cells: CHO K1
# ASSAY INFO: Functional testing on the vanilloid receptor 1 (VR1/TRPV1): FLIPR Ca2+ influx assay, displacement of capsaicin
# Assay type: cell-based, human being
# Set-up: key: AG=agonist; NE=no effect; pAG=partial agonist
# CONDITIONS USED: capsaicin (Cap); human being
# Description: […] In the process, the Ca^2+ influx is quantified in the FLIPR assay with the aid of a Ca^2+-sensitive dye (type Fluo-4, Molecular Probes Europe BV, Leiden, the Netherlands) in a fluorescent imaging plate reader (FLIPR, Molecular Devices, Sunnyvale, USA), as described hereinafter. […] The FLIPR protocol consists of 2 substance additions. […] After 5 minutes' incubation, 100 nM of capsaicin are applied and the Ca^2+ influx is also determined. […]
PROPERTY LABEL: mode of action at VR1/TRPV1 (AG, pAG, NE), Cap

Previously resolved entries follow.
>>> observed_result("CC(C)(C)c1cc(CNC(=O)Cc2ccncc2)n(-c2cccc(Cl)c2)n1")
"AG"
>>> observed_result("CC(C)(C)c1cc(CNC(=O)Cc2cccnc2)n(-c2cccc(Cl)c2)n1")
"AG"
>>> observed_result("O=C(NCc1cc(C(F)(F)F)nn1-c1cccc(Cl)c1)Nc1ccc(CNCCO)nc1")
"NE"
>>> observed_result("O=C(NCc1cc(C(F)(F)F)nn1-c1cccc(Cl)c1)Nc1cccnc1")
"AG"
>>> observed_result("O=C(Cc1ccncc1)NCc1cc(C(F)(F)F)nn1-c1cccc(Cl)c1")
"AG"
>>> observed_result("O=C(NCc1cc(C(F)(F)F)nn1-c1cccc(Cl)c1)Nc1ccncc1")
"AG"
>>> observed_result("CC(C)(C)c1cc(CNC(=O)Cc2cnccn2)n(-c2cccc(Cl)c2)n1")
"pAG"
>>> observed_result("COCCNc1ccc(NC(=O)NCc2cc(C(C)(C)C)nn2-c2cccc(Cl)c2)cn1")
"AG"

### Prompt Returns the measured mode of action at VR1/TRPV1 (AG, pAG, NE), Cap for the input molecule. Input: COCCOc1ccc(NC(=O)NCc2cc(C(C)(C)C)nn2-c2cccc(Cl)c2)cn1
### Response AG

### Prompt Returns the measured mode of action at VR1/TRPV1 (AG, pAG, NE), Cap for the input molecule. Input: CC(C(=O)NCc1cc(C(C)(C)C)nn1-c1cccc(Cl)c1)c1ccc(NC(=O)c2ccccc2)nc1 (stereo not drawn)
### Response AG

----------
# EXPERIMENTAL SYSTEM: vanilloid receptor 1 (VR1/TRPV1 receptor) (Homo sapiens)
# Construct: expressed in transfected cells; host or cells: CHO K1
# ASSAY INFO: Functional testing on the vanilloid receptor 1 (VR1/TRPV1): FLIPR Ca2+ influx assay, displacement of capsaicin
# Format: cell-based, human being
# CONDITIONS USED: capsaicin (Cap) as stimulus; Ki from IC50 by Cheng-Prusoff; read-out: (f) Ki (human being) [nM] Cap
PROPERTY LABEL: Ki (nM)

1: O=C(NCc1cc(C(F)(F)F)nn1-c1cccc(Cl)c1)Nc1ccc(NCCO)nc1
2: COc1cc(NC(=O)NCc2cc(C(F)(F)F)nn2-c2cccc(Cl)c2)cnc1N1CCCC1
3: O=C(NCc1cc(C(F)(F)F)nn1-c1cccc(Cl)c1)Nc1ccc(CO)nc1
### Prompt // rank the listed compounds by Ki, lowest value first Rank the items, then write their labels in that order.
### Response 1, 3, 2
